Please respond with reported inhibition for every item in the list.
# system: Leucine-rich repeat serine/threonine-protein kinase 2 (Homo sapiens)
# condition.notes: at 1 µM

Record excerpt, results attached:
molecular.string: COc1ccc2[nH]c3c4[nH]c5ccc(OC)cc5c4c4c(c3c2c1)C(=O)NC4=O
system: Leucine-rich repeat serine/threonine-protein kinase 2 (Homo sapiens)
inhibition: 24.3%

molecular.string: Nc1ncc(-c2cccc(S(N)(=O)=O)c2)c2scc(-c3ccc(F)c(Cl)c3)c12
system: Leucine-rich repeat serine/threonine-protein kinase 2 (Homo sapiens)
inhibition: 45.8%

molecular.string: Nc1nc(-c2ccc(F)cc2)c(-c2ccc3ncccc3n2)s1
system: Leucine-rich repeat serine/threonine-protein kinase 2 (Homo sapiens)
inhibition: 6.21%

molecular.string: Nc1nc(-c2cccc(Cl)c2)c(-c2ccc3ncccc3n2)s1
system: Leucine-rich repeat serine/threonine-protein kinase 2 (Homo sapiens)
inhibition: 7.21%

molecular.string: COc1cc(N2CCN(C(C)C)CC2)ccc1Nc1nc(Nc2ccc(F)cc2C(N)=O)c2cc[nH]c2n1
system: Leucine-rich repeat serine/threonine-protein kinase 2 (Homo sapiens)
inhibition: 94.8%

molecular.string: Fc1ccc(-c2nn3ncccc3c2-c2ccnc(Nc3ccc4c(c3)OCCO4)n2)cc1
system: Leucine-rich repeat serine/threonine-protein kinase 2 (Homo sapiens);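 further: mean percent inhibition of LRRK2 measured in the GSK PKIS kinase inhibitor set screen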
inhibition: 7.64%

Provide the reported inhibition of each entry below, same order.
1. Cc1cccc2c1NC(=O)/C2=N\Nc1ccc(S(N)(=O)=O)cc1
2. CS(=O)(=O)CCNCc1ccc(-c2ccc3ncnc(Nc4ccc(OCc5ccccc5)c(C(F)(F)F)c4)c3c2)o1
3. CCn1c(-c2nonc2N)nc2cnc(Oc3cccc(NC(=O)c4ccc(N(C)C)cc4)c3)cc21
4. NS(=O)(=O)c1ccc(N/N=C2\C(=O)Nc3ccc4ncccc4c32)cc1
5. CCn1cc(-c2ccnc3[nH]ccc23)c(-c2cccc(NC(=O)Nc3ccc(OCc4ccccc4)cc3)c2)n1
6. CNC(=O)c1cc(-c2ccc(F)cc2)cc(-c2ccc(S(=O)(=O)N3CCCC3)cc2)c1N
7. CCCN(CCS(C)(=O)=O)Cc1ccc(-c2ccc3ncnc(Nc4ccc(OCc5cccc(F)c5)c(Cl)c4)c3c2)o1

1: 7.1%; 2: 4.18%; 3: 6.56%; 4: 22.2%; 5: 3.32%; 6: 2.9%; 7: 4.95%
